STUDY_SYSTEM: human δ opioid receptor (Homo sapiens, UniProt P41143)
Sequence (P41143 whole entry): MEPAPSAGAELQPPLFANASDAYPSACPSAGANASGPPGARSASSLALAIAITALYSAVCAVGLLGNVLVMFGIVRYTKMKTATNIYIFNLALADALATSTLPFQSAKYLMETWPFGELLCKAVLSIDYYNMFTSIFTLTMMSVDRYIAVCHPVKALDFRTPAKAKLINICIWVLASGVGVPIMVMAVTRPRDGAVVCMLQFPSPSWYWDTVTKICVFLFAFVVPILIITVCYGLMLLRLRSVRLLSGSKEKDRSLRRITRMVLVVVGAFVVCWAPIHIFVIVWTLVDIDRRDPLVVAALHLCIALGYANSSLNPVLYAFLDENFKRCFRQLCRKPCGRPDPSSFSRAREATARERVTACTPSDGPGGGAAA
ASSAY_PROTOCOL: Inhibition of SNC 80-stimulated [35S]GTPγS binding, δ
Format: biochemical
PARTICULARS: in presence of 10 nM SNC 80; NI = No inhibition
Structures can show the parent of a compound that is named as a salt.
Catalogue of Antagonism δ Imax (%) readings, one per entry.
PROPERTY_LABEL: Antagonism δ Imax (%)

# COMPOUND, STUDY_SYSTEM, EXPERIMENTAL_RESULT
records = [
    ("Cc1cc(O)cc(C)c1C[C@H](N)C(=O)N1Cc2ccccc2C[C@H]1C(=O)NCC(=O)NC(c1ccccc1)c1ccccc1 [Compound 7, TFA·H-Dmt-Tic-Gly-NH-Benzhydryl]", "human δ opioid receptor (Homo sapiens, UniProt P41143)", "100±7.4%"),
    ("Cc1cc(O)cc(C)c1C[C@H](N)C(=O)N1Cc2ccccc2C[C@H]1C(=O)NCC(=O)NCc1ccc(N)cc1 [Compound 6, 2TFA·H-Dmt-Tic-Gly-NH-Bzl(pNH2)]", "human δ opioid receptor (Homo sapiens, UniProt P41143)", "78±2.7%"),
    ("Cc1cc(O)cc(C)c1C[C@H](N)C(=O)N1Cc2ccccc2C[C@H]1C(=O)NCC(=O)NCc1ccc(Cl)cc1 [Compound 3, TFA·H-Dmt-Tic-Gly-NH-Bzl(pCl)]", "human δ opioid receptor (Homo sapiens, UniProt P41143)", "93±2.2%"),
]
